- Tested on: RXF 393 renal
- Assay Overview: NCI tumour cell line growth inhibition, 48 h
Quantity Name: GI50

query: Would you kindly share the measured GI50 for COc1ccc2c(c1)sc1nc(-c3ccccc3)c(-c3cccc4ccccc34)n12 ?
result: 0.249 µM

---
query: Would you kindly share the measured GI50 for Cc1nc2sccn2c1-c1csc(Nc2ccccc2Cl)n1 ?
result: 1.9 µM

query: Next compound: CCC(=O)[C@H](C)[C@@H](OC(=O)[C@H](C)CC)[C@H](C)[C@H]1OC(CC)=C(C)C(=O)[C@@H]1C
result: 21.5 µM

query: Next compound: CCN1/C(=C\c2cc[n+](CC)c3ccccc23)C=Cc2ccccc21
result: 0.333 µM

query: Next compound: CCCCCCCCCCCCCC(=O)OC(/C=C/C(C)C)C(O)C(O)C(OC)C(=O)NC1CCCCN(C)C1=O (centres undefined)
result: > 49 µM

query: Next compound: COC([CH2][Hg][n]1cnc2c1c(=O)n(C)c(=O)n2C)CN1C(=O)c2ccccc2S1(=O)=O (centres undefined)
result: > 100 µM

query: Next compound: COc1cccc(-c2cc(-c3cccc(NS(C)(=O)=O)c3)nc(N)c2C#N)c1O
result: 0.104 µM

query: Next compound: CC1CCc2nc[nH]c(=O)c21 (centres undefined)
result: > 100 µM

query: Next compound: C=CCO[C@H]1CO[C@H]2[C@@H]1OC[C@@H]2Oc1ccc(Nc2ccnc(Nc3ccc(O[C@H]4CO[C@H]5[C@@H]4OC[C@@H]5OCC=C)c(Cl)c3)n2)cc1Cl
result: 1.69 µM

query: Next compound: Nc1nc(-n2c(-c3ccccc3)nc3c(Br)cc(Br)cc3c2=O)nnc1-c1cccc(Cl)c1Cl
result: 14.5 µM

query: Next compound: C=C(C)C(OC)C(O)CC1(C)CC(O)CC(C)(C2CCC3OC(C4(C)CCC(Br)C(C)(C)O4)CCC3(C)O2)O1 (centres undefined)
result: 18.3 µM

---

- Test system: KM12 colon
- Assay Overview: NCI tumour cell line growth inhibition, 48 h
Quantity Name: TGI

A selection of reference data follows.
query: Would you kindly share the measured TGI for COc1cccc(C2c3cc4c(cc3OC(C)(N3CCCC3)C2C)OCO4)c1O (stereo not given) ?
result: 27.4 µM

query: Next molecule: Nc1nc(-n2c(-c3ccccc3)nc3c(Br)cc(Br)cc3c2=O)nnc1-c1cccc(Cl)c1Cl
result: 63.4 µM

query: Next molecule: CCCC1C(=O)CCc2c(OC)ccc(OC)c21 (stereo not given)
result: > 100 µM

query: Next molecule: COc1ccc(N/N=C2\CCOc3ccc(C)cc3C2=O)cc1
result: > 100 µM

query: Next molecule: O=C(CCN1CCCCC1)C(=Cc1ccccc1)C(=O)CCN1CCCCC1
result: > 100 µM

query: Next molecule: COc1ccc2cc(NC(=O)N/N=C\c3ccc([N+](=O)[O-])cc3)ccc2c1
result: > 100 µM

---
query: Would you kindly share the measured TGI for COc1cc2nc3n(c(=O)c2cc1OC)-c1ccc([N+](=O)[O-])cc1C3=O ?
result: > 100 µM

query: Next molecule: Cc1ccc(C(=O)O)cc1S(=O)(=O)Nn1cnc2ccc(S(=O)(=O)Nc3ccccc3C(=O)O)cc2c1=O
result: > 100 µM

query: Next molecule: COc1cc(C2c3cc4c(cc3OC(N3CCOCC3)C2C)OCO4)ccc1O (stereo not given)
result: > 100 µM

query: Next molecule: C1CN(c2nc3c(nnc4nc(N5CCOCC5)sc43)s2)CCO1
result: > 100 µM

---

- System: MCF7 breast
- Assay Overview: NCI tumour cell line growth inhibition, 48 h
Listed compounds paired with reported TGI
Enter your answer as a number in µM; do not include the unit.

A selection of reference data follows.
query: Would you kindly share the measured TGI for Cc1ccc(Cl)c2[nH]c(-c3ccccc3)cc(=O)c12 ?
result: 34.6

query: Next compound: O=C(Nc1ccccc1)c1c(O)[nH]c(=S)[nH]c1=O
result: 92.8

query: Next compound: CC(C)=CCc1c2c(c3occ(-c4ccc(O)cc4)c(=O)c3c1O)CC(C(C)(C)O)O2 (stereo not given)
result: 28.3

query: Next compound: OCCN(CCO)c1ncnc2c1ncn2Cc1ccc(CCl)cc1
result: 32.5

query: Next compound: CCN1/C(=C\c2cc[n+](CC)c3ccccc23)C=Cc2ccccc21
result: 1.85

query: Next compound: C=C(C)C(OC)C(O)CC1(C)CC(O)CC(C)(C2CCC3OC(C4(C)CCC(Br)C(C)(C)O4)CCC3(C)O2)O1 (stereo not given)
result: 42.3

---
query: Would you kindly share the measured TGI for Cc1cn2c(/C=N/N=C(N)N)c(-c3cccc([N+](=O)[O-])c3)nc2s1 ?
result: 2.12

query: Next compound: COc1cc(Br)cc2cc(-c3cn4ccsc4n3)c(=O)oc12
result: 38.6

query: Next compound: O=C1c2ccccc2-c2c1c1ccccc1c(=O)n2CCNCCNCCNCCn1c2c(c3ccccc3c1=O)C(=O)c1ccccc1-2
result: 0.298

---

- Test system: MOLT-4 leukemia
- Assay Overview: NCI tumour cell line growth inhibition, 48 h
Listed compounds paired with reported TGI

A selection of reference data follows.
query: Would you kindly share the measured TGI for O=C1NC(=NCCc2cccc(F)c2)S/C1=C\c1ccc2ncccc2c1 ?
result: > 25 µM

query: Next compound: COc1cc(Br)cc2cc(-c3cn4ccsc4n3)c(=O)oc12
result: > 100 µM

query: Next compound: NC(=O)NO.O.O.O.O.O.O.O.O.O.O.O.[Ge].[Ge].[Ge].[Ge].[Ge].[O]=[Ge].[O]=[Ge].[O]=[Ge].[O]=[Ge].[O]=[Ge][OH]
result: > 100 µM

query: Next compound: C[C@@H]1CC[C@]2(C(=O)O)CC[C@]3(C)C(=CC[C@@H]4[C@@]5(C)CC[C@H](O)C(C)(C)[C@@H]5CC[C@]43C)[C@@H]2[C@]1(C)O
result: 18.3 µM

query: Next compound: COC(CCC[N+](C)(C)C)CC[N+](C)(C)C (stereo not given)
result: > 100 µM

---
query: Would you kindly share the measured TGI for COc1ccc2c(c1)/C(=C/CCN(C)C)c1ccccc1S2 ?
result: > 100 µM

query: Next compound: N#CCCC1C(C#N)C2(Cl)CC1(Cl)C(Cl)=C2Cl (stereo not given)
result: > 10 µM

query: Next compound: N#Cc1c(N2CCCC2)ncn(-c2ccccc2)c1=O
result: > 100 µM

query: Next compound: CC(C)(C)N1CSC(=S)N(Cc2ccco2)C1
result: 5.72 µM

query: Next compound: COc1cc2c(c(OC)c1OC)-c1ccc(NNC(N)=S)c(=O)cc1[C@@H](NC(C)=O)CC2
result: > 100 µM

---

- Tested on: NCI-H522 lung
- Assay Overview: NCI tumour cell line growth inhibition, 48 h; in the data active = GI50 below about 0.43 µM; inactive = the rest
*1 amine or outer side, *2 acyl side, *3 side chain or, on linkers, in order; H or OH if unused. Where a SMILES comes first, the peptide text is derived from it. Bridges are numbered along the chain shown (N, C = ends). [ ]: non-standard residue; d: D form. The star is where a group is joined. Phe(3,5-F2) = N[C@@H](Cc1cc(F)cc(F)c1)C(=O)O; Pro(4R-Me) = C[C@H]1CN[C@H](C(=O)O)C1; aThr = C[C@H](O)[C@H](N)C(=O)O; Pip = O=C(O)[C@@H]1CCCCN1; X10 = Fc1cc(C2CC2)ccc1N*; CO = O=C([*:1])[*:2]
Outcomes you can answer with include only these: Yes = active, No = inactive

Completed entries (count: 6):
query: How did this test come out for C[C@@H]1C[C@H]2C(=O)O[C@@H](C)[C@H](NC(=O)[C@H](Cc3cc(F)cc(F)c3)NC(=O)Nc3ccc(C4CC4)cc3F)C(=O)N3CCC[C@H]3C(=O)N3CCCC[C@H]3C(=O)N[C@@H](C)C(=O)N2C1 ({X10-CO}-[Phe(3,5-F2)][aThr]P[Pip]A[Pro(4R-Me)]; ester 2-C) ?
result: Yes

query: Next compound: COc1cc2c(cc1OCCCCN1CCN(CC(=O)Nc3ccc(Cl)cc3C(=O)c3ccccc3Cl)CC1)N=CC1CCCN1C2=O (stereo not given)
result: Yes

query: Next compound: CC1CCC(n2c3cnccc3c3cnc(Nc4ccc5c(n4)CCN(C(=O)CO)C5)nc32)CC1 (stereo not given)
result: No

query: Next compound: OCCN(CCO)c1ncnc2c1ncn2Cc1ccc(CCl)cc1
result: No

query: Next compound: OC1CSSC1Cn1cnc2c(Nc3ccc(OCc4cccc(F)c4)c(Cl)c3)ncnc21 (stereo not given)
result: No

query: Next compound: Nc1c(C(=O)c2cccc(CCS(N)(=O)=O)c2)cnn1-c1ccc(F)cc1
result: No

---
query: How did this test come out for CC(=O)[CH-]C(=O)c1ccccc1.CC(=O)[CH-]C(=O)c1ccccc1.CN(C)c1ccc([O-])cc1.CN(C)c1ccc([O-])cc1.Cl.[Ti+4] ?
result: No

query: Next compound: COc1cc(/C=N\NC(=O)CN2CCN(c3cc4c(cc3F)c(=O)c(C(=O)N/N=C/c3cc(OC)c(OC)c(OC)c3)cn4C3CC3)CC2)cc(OC)c1OC
result: Yes

query: Next compound: COC([CH2][Hg][n]1cnc2c1c(=O)n(C)c(=O)n2C)CN1C(=O)c2ccccc2S1(=O)=O (stereo not given)
result: No

query: Next compound: CCN1/C(=C\c2cc[n+](CC)c3ccccc23)C=Cc2ccccc21
result: Yes
